tested on: SNK-6 (IL-2 2.5 ng/mL); experiment: percent inhibition of viability; higher = more inhibition; settings: 72 h; 100 nM
I'd appreciate it if you marked entries Yes when percent inhibition of viability is lower than 30% and No when it is not.

INPUT: Take the compound Nc1ccn([C@@H]2O[C@H](CO)[C@@H](O)[C@@H]2O)c(=O)n1 [Cytarabine] (max concentration tested 10000 nM) and say whether its percent inhibition of viability is less than 30%.
OUTPUT: No

INPUT: Take the compound CCc1cc2c(cc1N1CCC(N3CCOCC3)CC1)C(C)(C)c1[nH]c3cc(C#N)ccc3c1C2=O [Alectinib] (max concentration tested 1000 nM) and say whether its percent inhibition of viability is less than 30%.
OUTPUT: Yes

INPUT: Take the compound C[C@@H](Oc1cc(-n2cnc3ccc(CN4CCN(C)CC4)cc32)sc1C(N)=O)c1ccccc1C(F)(F)F (max concentration tested 10000 nM) and say whether its percent inhibition of viability is less than 30%.
OUTPUT: No

INPUT: Take the compound CCCS(=O)(=O)Nc1ccc(F)c(C(=O)c2c[nH]c3ncc(-c4ccc(Cl)cc4)cc23)c1F [Vemurafenib] (max concentration tested 10000 nM) and say whether its percent inhibition of viability is less than 30%.
OUTPUT: Yes

INPUT: Take the compound Nc1ncn([C@H]2C[C@H](O)[C@@H](CO)O2)c(=O)n1 [Decitabine] (max concentration tested 10000 nM) and say whether its percent inhibition of viability is less than 30%.
OUTPUT: No

INPUT: Take the compound N#CC[C@H](C1CCCC1)n1cc(-c2ncnc3[nH]ccc23)cn1 [Ruxolitinib] (max concentration tested 10000 nM) and say whether its percent inhibition of viability is less than 30%.
OUTPUT: No

* * *

tested on: normal primary NK cells, pool 2 (3 donors) (IL-2 2.5 ng/mL); test: drug sensitivity score (DSS) (DSS units); higher = more sensitive; extreme values may be limits of the assay; settings: 72 h
Record form. Attribute: drug sensitivity score. Fill in for each entry.
Answers are plain numbers.

The cases that follow already have their drug sensitivity score on record.
C[C@]1(O)C[C@@H](c2nc(-c3ccc4ccc(-c5ccccc5)nc4c3)c3c(N)nccn32)C1 [Linsitinib] (max concentration tested 10000 nM) = 1.67
CN1CCC(CNc2ccc3ncc(-c4cccc(OC(F)(F)F)c4)n3n2)CC1 [SGI-1776] (max concentration tested 10000 nM) = 9.22
CN(C)CCOc1ccc(/C(=C(/CCCl)c2ccccc2)c2ccccc2)cc1 [Toremifene] (max concentration tested 10000 nM) = 3.11

For every item below, please supply its drug sensitivity score.
1. Cc1ccccc1C(C(=O)NC1CCCCC1)N(C(=O)Cn1ccnc1C)c1cccc(F)c1 (stereo not given) [AGI-5198] (max concentration tested 10000 nM)
2. COCC[n+]1c2c(n(Cc3cnccn3)c1C)C(=O)c1ccccc1C2=O [YM155] (max concentration tested 10000 nM)

OUTPUT:
1. 0
2. 12

* * *

Record form. Attribute: percent inhibition of viability. Fill in for each entry.
test system: NK-92 (IL-2 2.5 ng/mL); assay: percent inhibition of viability; higher = more inhibition; details: 72 h; 1 nM
One number for each entry, in %.

For every item below, please supply its percent inhibition of viability.
1. COCC(=O)NC/C=C/c1ccc2ncnc(Nc3ccc(Oc4ccc(C)nc4)c(C)c3)c2c1 (max concentration tested 10000 nM)
2. CC[C@H](NC(=O)[C@H](C)NC)C(=O)N1C[C@@H](O)C[C@H]1Cc1c(-c2[nH]c3cc(F)ccc3c2C[C@@H]2C[C@H](O)CN2C(=O)[C@H](CC)NC(=O)[C@H](C)NC)[nH]c2cc(F)ccc12 [Birinapant] (max concentration tested 1000 nM)
3. Nc1nccc(-c2c(-c3ccc(F)cc3)ncn2C2CCCCC2)n1 (max concentration tested 10000 nM)
4. O=C(/C=C/c1cccc(S(=O)(=O)Nc2ccccc2)c1)NO [Belinostat] (max concentration tested 10000 nM)

OUTPUT:
1.59
-12.3
4.97
5.07

* * *

tested on: NK-YS (IL-2 2.5 ng/mL); assay: relative IC50 (inflection point of fitted viability curve, relative to fitted max inhibition); higher = less sensitive; settings: 72 h
Record form. Attribute: relative IC50. Fill in for each entry.
Numbers only, in nM.

c1ccc2c(CCNc3ccc(Nc4ccncc4)cc3)c[nH]c2c1 [Serdemetan] = 880
Nc1ncn([C@H]2C[C@H](O)[C@@H](CO)O2)c(=O)n1 [Decitabine] = 474
Nc1cc(C(F)(F)F)c(-c2cc(N3CCOCC3)nc(N3CCOCC3)n2)cn1 [Buparlisib] = 520
Cc1sc2c(c1C)C(c1ccc(Cl)cc1)=N[C@@H](CC(=O)OC(C)(C)C)c1nnc(C)n1-2 [(+)JQ1] = 231
C=CCc1cccc(/C=N/NC(=O)CN2CCN(Cc3ccccc3)CC2)c1O [PAC-1] = 2740
Cc1cnc(Nc2ccc(OCCN3CCCC3)cc2)nc1Nc1cccc(S(=O)(=O)NC(C)(C)C)c1 = 534
CCCS(=O)(=O)Nc1ccc(F)c(C(=O)c2c[nH]c3ncc(-c4ccc(Cl)cc4)cc23)c1F [Vemurafenib] = 3080

Note: attention shifts to another entry.
Briefly, relative IC50 measured for C=CCNC1=C2C[C@@H](C)C[C@H](OC)[C@H](O)[C@@H](C)/C=C(\C)[C@H](OC(N)=O)[C@@H](OC)/C=C\C=C(/C)C(=O)NC(=CC1=O)C2=O [Tanespimycin] : 80.2

* * *

Record form. Attribute: drug sensitivity score. Fill in for each entry.
test system: SNK-6 (IL-2 2.5 ng/mL); assay: drug sensitivity score (DSS) (DSS units); higher = more sensitive; extreme values may be limits of the assay; conditions: 72 h
Answers are plain numbers.

C[C@@H](Oc1cc(-n2cnc3ccc(CN4CCN(C)CC4)cc32)sc1C(N)=O)c1ccccc1C(F)(F)F (max concentration tested 10000 nM) = 27.6
COc1cc(OC2CCN(C)CC2)ccc1Nc1ncc2c(n1)n(C1CCCC1)c(=O)n2C [AZ 3146] (max concentration tested 10000 nM) = 7.53

Briefly, drug sensitivity score measured for CC[C@@H]1C(=O)N(C)c2cnc(Nc3ccc(C(=O)NC4CCN(C)CC4)cc3OC)nc2N1C1CCCC1 [BI 2536] (max concentration tested 1000 nM) : 17.8

* * *

system: NKL (IL-2 2.5 ng/mL); test: percent inhibition of viability; higher = more inhibition; details: 72 h; 10 nM
Record form. Attribute: percent inhibition of viability. Fill in for each entry.
Numbers only, in %.

The cases that follow already have their percent inhibition of viability on record.
COCC(=O)NC/C=C/c1ccc2ncnc(Nc3ccc(Oc4ccc(C)nc4)c(C)c3)c2c1 (max concentration tested 10000 nM) = -1.8
COC1=CC(c2cc3ccccc3[nH]2)=N/C1=C\c1[nH]c(C)cc1C [Obatoclax] (max concentration tested 10000 nM) = -11.6
CCCS(=O)(=O)Nc1ccc(F)c(C(=O)c2c[nH]c3ncc(-c4ccc(Cl)cc4)cc23)c1F [Vemurafenib] (max concentration tested 10000 nM) = -17.7

Note: attention shifts to another entry.
Briefly, percent inhibition of viability measured for O=C1CN2Cc3c(ccc(Cl)c3Cl)N=C2N1 [Anagrelide] (max concentration tested 10000 nM) : -3.63

* * *

test system: NKL (IL-2 2.5 ng/mL); assay: percent inhibition of viability; higher = more inhibition; details: 72 h; 100 nM
Record form. Attribute: percent inhibition of viability. Fill in for each entry.
Answers are plain numbers, in %.

Cc1cnc(Nc2ccc(OCCN3CCCC3)cc2)nc1Nc1cccc(S(=O)(=O)NC(C)(C)C)c1 (max concentration tested 10000 nM) = 50.6
N#Cc1ccc(C(c2ccc(C#N)cc2)n2cncn2)cc1 [Letrozole] (max concentration tested 10000 nM) = 3.52

Note: attention shifts to another entry.
Briefly, percent inhibition of viability measured for COc1cc(C(=O)O)ccc1NC(=O)[C@@H]1N[C@@H](CC(C)(C)C)[C@](C#N)(c2ccc(Cl)cc2F)[C@H]1c1cccc(Cl)c1F [RG7388] (max concentration tested 10000 nM) : 7.58

* * *

Record form. Attribute: relative IC50. Fill in for each entry.
tested on: IMC-1 (IL-2 20 ng/mL); assay: relative IC50 (inflection point of fitted viability curve, relative to fitted max inhibition); higher = less sensitive; conditions: 72 h

The cases that follow already have their relative IC50 on record.
CC(=O)Nc1cccc(-n2c(=O)n(C3CC3)c(=O)c3c(Nc4ccc(I)cc4F)n(C)c(=O)c(C)c32)c1 = > 250 nM
CN1CCN(c2ccc3nc(-c4c(N)c5c(F)cccc5[nH]c4=O)[nH]c3c2)CC1 = > 10000 nM
CC(C)[C@H]1C(=O)N[C@@H](CCCNC(=N)N)C(=O)NCC(=O)N[C@@H](CC(=O)O)C(=O)N[C@H](Cc2ccccc2)C(=O)N1C [Cilengitide] = > 10000 nM

For every item below, please supply its relative IC50.
1. C[C@]1(O)C[C@@H](c2nc(-c3ccc4ccc(-c5ccccc5)nc4c3)c3c(N)nccn32)C1
2. C[C@@H](Nc1cc(F)cc(F)c1)c1cc(C(=O)N(C)C)cc2c(=O)cc(N3CCOCC3)oc12
3. CC(C)(C)c1cc(NC(=O)Nc2ccc(-c3cn4c(n3)sc3cc(OCCN5CCOCC5)ccc34)cc2)no1
4. O=C(Cc1ccc(-c2ccc(OCCN3CCOCC3)cc2)cn1)NCc1ccccc1
5. Nc1cc(C(F)(F)F)c(-c2cc(N3CCOCC3)nc(N3CCOCC3)n2)cn1
6. Nc1ccn([C@@H]2O[C@H](CO)[C@@H](O)[C@@H]2O)c(=O)n1
7. Nc1ncn([C@@H]2O[C@H](CO)[C@@H](O)[C@H]2O)c(=O)n1

OUTPUT:
1: > 10000 nM; 2: > 1000 nM; 3: > 1000 nM; 4: 34.4 nM; 5: 3900 nM; 6: 85.5 nM; 7: 3620 nM
